system: M14 melanoma; assay: NCI tumour cell line growth inhibition, 48 h
Measured TGI, listed per entry.
Express the result in µM but write the number alone.

>>> recorded_value("CCCN(CCC)C(=O)C1=Cc2ccc(-c3ccc(C(=O)N4CCCC4)cc3)cc2N=C(N)C1")
22.7
>>> recorded_value("CC(C)(C)NCc1cc(Nc2ccnc3cc(Cl)ccc23)cc(-c2ccc(Cl)cc2)c1O")
4

# evaluate next
Exercise: Item: CC(C)/C(Cl)=N\OC(=O)Nc1cccc(F)c1 Test system: M14 melanoma Read-out: TGI Value: ?
Key: 10.8

###

test system: HS 578T breast; experiment: NCI tumour cell line growth inhibition, 48 h; in the data active means GI50 below about 0.43 µM; inactive means the rest
Give your call using only these classes: t for active, f for inactive

For orientation, consider the following solved cases.
>>> class_name("CC(C)=CCC[C@H](C)[C@@H]1CC[C@]2(C)C3CC[C@]4(OC4(C)C)C(CCCO)[C@]3(C)CC[C@@]12C (some centres not stated)")
"f"
>>> class_name("COc1cc(NS(C)(=O)=O)ccc1Nc1c2ccc(Cl)cc2nc2c(OC)cccc12")
"f"
>>> class_name("C/C=C(\\C)C(=O)N[C@H]1CC[C@]2(C)C3CC[C@@]4(C)C(CC[C@@H]4C(C)N(C)C)C3CCC2[C@H]1OC(C)=O (some centres not stated)")
"f"

Exercise: Hey, what did the test say about O=c1c2cccc(Cl)c2sc2c(NCCCNCCO)nc3ccccc3c12 ?
Key: f

Exercise: Hey, what did the test say about CCCN(CCC)C(=O)C1=Cc2ccc(-c3ccc(C(=O)N4CCCC4)cc3)cc2N=C(N)C1 ?
Key: f

Exercise: Hey, what did the test say about CC[C@@H](C(=O)[C@@H](C)[C@@H](O)[C@H](C)[C@@H]1O[C@@H]([C@@H](CC)C(=O)O)CC[C@@H]1C)C1O[C@]2(C=CC(=O)[C@]3(CC[C@@](C)([C@H]4CC[C@](O)(CC)[C@H](C)O4)O3)O2)[C@H](C)C[C@@H]1C (some centres not stated) ?
Key: t

Exercise: Hey, what did the test say about Oc1ccc2cc(Br)ccc2c1-c1c(O)ccc2cc(Br)ccc12 ?
Key: f

###

Measured TGI, listed per entry.
tested on: DLD-1 colon; assay: NCI tumour cell line growth inhibition, 48 h

Some solved entries appear below for comparison.
>>> recorded_value("O=S(=O)(O)O.[NH-]C1CCCCC1[NH-].[Pt+2] (centres undefined)")
"> 100 µM"
>>> recorded_value("O=C(O)/C=C/n1c2ccccc2c(=O)c2ccccc21")
"> 100 µM"
>>> recorded_value("COc1cc(/C=C2\\[C@H]3c4c(c(OC)c(C)c(OC)c4OC)C[C@@H](C(=O)N2Cc2ccccc2)N3C(=O)OCC(C)C)c(OC)c(C)c1OC")
"> 100 µM"
>>> recorded_value("COc1cccc2c1CCc1ccccc1CC2=O")
"> 100 µM"
>>> recorded_value("COc1cc(C2=NN(C)C(c3ccc([N+](=O)[O-])o3)C2)cc(OC)c1OC (centres undefined)")
"> 100 µM"

Exercise: Reported TGI for CNC(=O)CN(CC(=O)NC)C(=O)NC : what is it?
Key: > 100 µM

Exercise: Reported TGI for COC(=O)CCCN(C)c1n[nH]c(N)n1 : what is it?
Key: > 100 µM

Exercise: Reported TGI for COc1ccc(C(=O)C(c2ccc(OC)cc2)C2(O)C(=O)Nc3ccccc32)cc1 (centres undefined) : what is it?
Key: > 100 µM

###

system: NCI-H522 lung; experiment: NCI tumour cell line growth inhibition, 48 h
Each entry gets NO if its TGI stays under 9 µM, and YES if its TGI is 9 µM or above.

>>> class_name("O=S(=O)(O)O.[NH-]C1CCCCC1[NH-].[Pt+2] (stereo not given)")
"YES"
>>> class_name("CC(C)=CC1C(COC(=O)c2cc3c(cc2Cl)OCO3)C1(C)C (stereo not given)")
"YES"
>>> class_name("Cc1[nH]c2ccccc2c1C1Cc2ccccc2N1C(=O)/C=C/C=C/c1ccccc1 (stereo not given)")
"YES"
>>> class_name("COc1ccc(C[C@@H]2Cc3cc(OC)c(OC)cc3CN2C)cc1")
"YES"
>>> class_name("COc1cc(-c2nc(Nc3nc4ccccc4[nH]3)nc(N)c2C#N)cc(OC)c1OC")
"NO"

Read the next record carefully.
Exercise: Given COC(=O)Nc1nc2ccc(Oc3ccc(NC(=O)Nc4cccc(C(=O)O)c4)cc3)cc2[nH]1 , state whether its TGI is at least 9 µM.
Key: YES

###

system: HL-60(TB) leukemia; assay: NCI tumour cell line growth inhibition, 48 h
readout.name: TGI

Some solved entries appear below for comparison.
>>> recorded_value("O=C(Nc1cc(C(=O)Nc2cccc(S(=O)(=O)O)c2)cc(C(=O)Nc2cccc(S(=O)(=O)O)c2)c1)c1cccc(C(=O)Nc2cc(C(=O)Nc3cccc(S(=O)(=O)O)c3)cc(C(=O)Nc3cccc(S(=O)(=O)O)c3)c2)c1")
"65.5 µM"
>>> recorded_value("CCN(CC)CCCC(C)Nc1cnc(C(=O)Nc2ccc(Cl)c3cccnc23)cn1 (configuration not stated)")
"3.54 µM"
>>> recorded_value("Cc1[nH]c2ccccc2c1C1Cc2ccccc2N1C(=O)/C=C/C=C/c1ccccc1 (configuration not stated)")
"> 100 µM"
>>> recorded_value("COC(=O)Nc1nc2ccc(Oc3ccc(NC(=O)Nc4cccc(C(=O)O)c4)cc3)cc2[nH]1")
"17.4 µM"
>>> recorded_value("COCO[C@@H]1C[C@H]2C(O)Nc3ccccc3C(=O)N2C1 (some centres not stated)")
"> 100 µM"
>>> recorded_value("CC(=O)C1C(=O)C(=O)N(c2cccc(C)c2C)C1=O (configuration not stated)")
"> 100 µM"

# evaluate next
Exercise: Reported TGI for COc1cc(C2c3cc4c(cc3OC(NC3CCCCC3)C2C)OCO4)cc(OC)c1OC (configuration not stated) : what is it?
Key: 0.675 µM

###

test system: OVCAR-8 ovarian; assay: NCI tumour cell line growth inhibition, 48 h
Measured GI50, listed per entry.

Some solved entries appear below for comparison.
>>> recorded_value("O=S(=O)(O)O.[NH-]C1CCCCC1[NH-].[Pt+2] (centres undefined)")
"80100 nM"
>>> recorded_value("O=C(CN1CCN(c2ncnc3ccccc23)CC1)Nc1ccc(Cl)cc1C(=O)c1ccccc1Cl")
"1280 nM"
>>> recorded_value("CC(=O)[CH-]C(=O)c1ccccc1.CC(=O)[CH-]C(=O)c1ccccc1.CC[O-].CC[O-].[Zr+4]")
"> 100000 nM"

Exercise: Reported GI50 for CCOc1cccc(/C=N/NC(=O)c2ccc(Nc3ccnc(C(F)(F)F)c3)cc2)c1O : what is it?
Key: 599 nM

Exercise: Reported GI50 for CCC[CH2][Sn]1([CH2]CCC)[O]C(=O)c2cc(I)cc(I)c2[O]1 : what is it?
Key: 1410 nM

###

Measured TGI, listed per entry.
tested on: NCI-H522 lung; test: NCI tumour cell line growth inhibition, 48 h
Express the result in µM but write the number alone.

>>> recorded_value("Cn1cc(-c2nc(-c3c[nH]c4ncccc34)cs2)c2cc(F)ccc21")
9.89

# evaluate next
Exercise: Reported TGI for COc1cc(O)c2c(O)c3c(c4c2c1[C@]1(C4)C(C)=CCCC1(C)C)[C@H](O)[C@@]1(O)CC(=O)C(C(N)=O)=C(O)[C@@]1(O)C3=O : what is it?
Key: 0.332

###

tested on: A549 NSCLC; experiment: NCI tumour cell line growth inhibition, 48 h
readout.name: TGI

Some solved entries appear below for comparison.
>>> recorded_value("O=S1c2ccccc2N=C(c2ccc3ccccc3c2)CC1C1=CC=CCC1 (configuration not stated)")
"91.2 µM"
>>> recorded_value("C[n+]1c2ccccc2c(CNc2ccc(S(=O)(=O)N=C(N)N)cc2)c2ccccc21")
"> 100 µM"
>>> recorded_value("COc1cc(O)cc(/C=C/c2ccc(O)cc2)c1")
"> 100 µM"
>>> recorded_value("CC(C)/C(Cl)=N\\OC(=O)Nc1cccc(F)c1")
"34.9 µM"
>>> recorded_value("CC1=C(C(=O)Nc2ccc(F)c(Cl)c2)C(c2ccccc2Cl)NC(=S)N1 (configuration not stated)")
"> 50 µM"

Exercise: Item: [O-]c1c2c(nn1-c1ccccc1)c1ccccc1c[n+]2Cc1ccccc1 Test system: A549 NSCLC Read-out: TGI Value: ?
Key: > 100 µM

Exercise: Item: O=C1CCCCC/C1=C\c1ccc(F)cc1 Test system: A549 NSCLC Read-out: TGI Value: ?
Key: > 100 µM

Exercise: Item: O=c1[nH]nc(Cc2ccccc2)n1/N=C/c1c(O)ccc2ccccc12 Test system: A549 NSCLC Read-out: TGI Value: ?
Key: > 100 µM

Exercise: Item: COc1cc2c3c(n(CCCCOC(=O)C(F)(F)F)c(=O)c2cc1OC)-c1cc2c(cc1C3=O)OCO2 Test system: A549 NSCLC Read-out: TGI Value: ?
Key: > 100 µM

Exercise: Item: CC1CN=C(Nc2ccc(F)cc2F)S1 (configuration not stated) Test system: A549 NSCLC Read-out: TGI Value: ?
Key: > 100 µM

Source: PubChem BioAssay (NCI)
